# Assay Procedure: Pharmacokinetics in mice (IV and PO), plasma LC-MS/MS
# Assay type: in vivo, Male ICR (CD-1) mice
# Experimental Setup: male, ICR (CD-1), mouse, plasma, 10 mg/kg, PO (10 mpk)
Counter-ions that a name gives are not always drawn.
Observation Type: Tmax (h)

Compound: COc1ccc(C(=O)N(CC(C)(C)CCCCCCCCCCCCCCCCCC(=O)NCCC[N+](C)(CC(=O)NCCN)CC(=O)NCCN)c2cccc(C)n2)c(N2CCC(COc3cc([C@@H](CC(=O)O)C4CC4)ccn3)CC2)c1
Measurement: 5.3

Compound: COc1ccc(C(=O)N(CC(C)(C)CCCCCCCCCCCCCCCCCCCCCC[N+]23CCN(CC2)CC3)c2cccc(C)n2)c(N2CCC(COc3cc([C@@H](CC(=O)O)C4CC4)ccn3)CC2)c1
Measurement: 6.7

Compound: COc1ccc(C(=O)N(CC(C)(C)CCCCCCCCCCCCCCCCCCCC(=O)NCCCN(CC(=O)O)CC(=O)O)c2cccc(C)n2)c(N2CCC(COc3cc([C@@H](CC(=O)O)C4CC4)ccn3)CC2)c1
Measurement: 8

Compound: COc1ccc(C(=O)N(CC(C)(C)CCCCCCCCCCCCCCCCCCCC(=O)NCC[N+](C)(CC(=O)NCCN)CC(=O)NCCN)c2cccc(C)n2)c(N2CCC(COc3cc([C@@H](CC(=O)O)C4CC4)ccn3)CC2)c1
Measurement: 5.3

Compound: COc1ccc(C(=O)N(CC(C)(C)CCCCCCCCCCCCCCCCCC(=O)NCCC[N+]23CC[N+](C)(CC2)CC3)c2cccc(C)n2)c(N2CCC(COc3cc([C@@H](CC(=O)O)C4CC4)ccn3)CC2)c1
Measurement: 4

Compound: COc1ccc(C(=O)N(CC(C)(C)CCCCCCCCCCCCCCCCCCCC(=O)NCCC[N+](C)(CC(=O)[O-])CC(=O)O)c2cccc(C)n2)c(N2CCC(COc3cc([C@@H](CC(=O)O)C4CC4)ccn3)CC2)c1 (stereo partly shown)
Measurement: 8

Compound: COc1ccc(C(=O)N(CC(C)(C)CCCCCCCCCCCCCCCCCC(=O)NCCC[N+]23CCN(CC2)CC3)c2cccc(C)n2)c(N2CCC(COc3cc([C@@H](CC(=O)O)C4CC4)ccn3)CC2)c1 [Example 18, TFA salt]
Measurement: 4

====

# Assay Procedure: Plasma drug concentration at end of oGTT study by LC-MS/MS
# Type: in vivo, Male C57BL/6 mice
# Experimental Setup: male, C57BL/6, mouse, 30 mpk oral, 6 h post dose, read-out: Drug conc
Counter-ions that a name gives are not always drawn.
Some compounds, each annotated with its measured concentration at 6 h.

Compound: COc1ccc(C(=O)N(CC(C)(C)CCCCCCCCCCCCCCCCCC(=O)NCCC[N+]23CC[N+](C)(CC2)CC3)c2cccc(C)n2)c(N2CCC(COc3cc([C@@H](CC(=O)O)C4CC4)ccn3)CC2)c1
concentration at 6 h [ng/mL]: 347

Compound: COc1ccc(C(=O)N(CC(C)(C)CCCCCCCCCCCCCCCCCC(=O)NCCC[N+]23CCN(CC2)CC3)c2cccc(C)n2)c(N2CCC(COc3cc([C@@H](CC(=O)O)C4CC4)ccn3)CC2)c1 [Example 18, TFA salt]
concentration at 6 h [ng/mL]: 274

Compound: COc1ccc(C(=O)N(CC(C)(C)CCCCCCCCCCCCCCCCCC(=O)NCC[N+](C)(CCCC(=O)NCCN)CCCC(=O)NCCN)c2cccc(C)n2)c(N2CCC(COc3cc([C@@H](CC(=O)O)C4CC4)ccn3)CC2)c1
concentration at 6 h [ng/mL]: 237

Numbers sourced from patent US20250073338A1.
